- experimentalTarget: DNA (cytosine-5)-methyltransferase 1 (Homo sapiens, UniProt P26358)
- Sequence (P26358 whole entry): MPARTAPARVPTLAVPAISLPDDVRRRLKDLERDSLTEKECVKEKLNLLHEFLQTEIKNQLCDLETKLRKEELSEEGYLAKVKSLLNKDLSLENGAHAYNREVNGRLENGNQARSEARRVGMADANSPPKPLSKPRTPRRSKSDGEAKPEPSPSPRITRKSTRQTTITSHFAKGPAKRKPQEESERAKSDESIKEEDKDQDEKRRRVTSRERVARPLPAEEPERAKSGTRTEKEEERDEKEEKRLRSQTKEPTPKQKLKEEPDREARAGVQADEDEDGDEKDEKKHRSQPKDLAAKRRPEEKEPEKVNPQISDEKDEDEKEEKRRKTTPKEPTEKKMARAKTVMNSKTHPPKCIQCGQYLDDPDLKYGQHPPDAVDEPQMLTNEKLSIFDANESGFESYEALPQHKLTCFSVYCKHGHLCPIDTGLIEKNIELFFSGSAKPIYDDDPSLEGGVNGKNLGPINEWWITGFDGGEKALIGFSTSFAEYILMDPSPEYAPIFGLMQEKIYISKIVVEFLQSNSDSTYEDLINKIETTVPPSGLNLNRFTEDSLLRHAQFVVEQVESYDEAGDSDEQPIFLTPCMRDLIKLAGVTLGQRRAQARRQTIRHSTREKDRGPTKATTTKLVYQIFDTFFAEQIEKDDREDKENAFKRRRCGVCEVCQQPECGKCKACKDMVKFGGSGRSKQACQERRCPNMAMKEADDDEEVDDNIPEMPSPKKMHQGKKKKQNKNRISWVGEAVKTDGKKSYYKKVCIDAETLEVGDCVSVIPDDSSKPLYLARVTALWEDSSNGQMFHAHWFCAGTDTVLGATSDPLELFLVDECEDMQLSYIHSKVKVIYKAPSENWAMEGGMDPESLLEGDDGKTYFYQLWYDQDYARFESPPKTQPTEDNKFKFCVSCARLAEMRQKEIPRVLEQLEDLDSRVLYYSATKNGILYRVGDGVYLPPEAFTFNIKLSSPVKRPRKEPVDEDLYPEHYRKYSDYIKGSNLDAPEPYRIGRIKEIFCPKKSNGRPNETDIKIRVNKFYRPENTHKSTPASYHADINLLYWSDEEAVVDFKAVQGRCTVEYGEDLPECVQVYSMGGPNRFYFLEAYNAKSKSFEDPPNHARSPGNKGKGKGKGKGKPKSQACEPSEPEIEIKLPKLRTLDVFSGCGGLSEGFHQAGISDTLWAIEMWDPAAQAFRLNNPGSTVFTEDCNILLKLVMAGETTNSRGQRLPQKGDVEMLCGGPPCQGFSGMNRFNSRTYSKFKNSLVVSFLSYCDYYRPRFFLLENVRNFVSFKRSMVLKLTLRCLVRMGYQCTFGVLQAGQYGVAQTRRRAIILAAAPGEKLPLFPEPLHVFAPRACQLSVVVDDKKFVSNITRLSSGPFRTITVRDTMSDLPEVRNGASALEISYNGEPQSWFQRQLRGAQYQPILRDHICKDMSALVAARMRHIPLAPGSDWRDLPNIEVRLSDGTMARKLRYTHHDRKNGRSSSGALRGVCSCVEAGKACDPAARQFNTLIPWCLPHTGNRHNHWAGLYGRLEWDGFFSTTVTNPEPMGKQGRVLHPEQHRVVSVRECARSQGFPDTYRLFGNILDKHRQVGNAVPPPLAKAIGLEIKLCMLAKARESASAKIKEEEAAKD
- assayComment: Inhibition of full length His-tagged human DNMT1 using SAM/[methyl-3H]SAM assessed as reduction of methylation in biotinylated hemimethylated DNA duplex at 100 uM after 1 hr by scintillation counting method relative to control
Quick reference: inhibition of the listed items.
The reply should be a number in %, with the unit left off.

Worked examples follow.
Here c1ccc(NCCNc2ncnc3cc(OCC4CCN(CCNc5ccnc6ccccc56)CC4)ccc23)cc1 was tested on DNA (cytosine-5)-methyltransferase 1 (Homo sapiens, UniProt P26358), and its inhibition came to 93

Here Cc1cc(NCCN2CCC(COc3ccc4c(NCCCc5ccccc5)ncnc4c3)CC2)ccn1 was tested on DNA (cytosine-5)-methyltransferase 1 (Homo sapiens, UniProt P26358), and its inhibition came to 55

Here CC(C)c1ccc(CCNc2ncnc3cc(OCC4CCN(CCNc5ccnc6ccccc56)CC4)ccc23)cc1 was tested on DNA (cytosine-5)-methyltransferase 1 (Homo sapiens, UniProt P26358), and its inhibition came to 8

Here CN(CCN1CCC(COc2ccc3c(NCCCc4ccccc4)ncnc3c2)CC1)c1ccnc2ccccc12 was tested on DNA (cytosine-5)-methyltransferase 1 (Homo sapiens, UniProt P26358), and its inhibition came to 57

Here FC(F)(F)c1cc(NCCN2CCC(COc3ccc4c(NCCCc5ccccc5)ncnc4c3)CC2)c2ccccc2n1 was tested on DNA (cytosine-5)-methyltransferase 1 (Homo sapiens, UniProt P26358), and its inhibition came to 13

Continuing:
Here COCn1ccc(NCCNCCCOc2ccc3c(NCCCc4ccccc4)ncnc3c2)nc1=O was tested on DNA (cytosine-5)-methyltransferase 1 (Homo sapiens, UniProt P26358), and its inhibition came to 0

Here c1ccc(CCCNc2ncnc3cc(OCC4CCN(CCNc5ccc6ccccc6c5)CC4)ccc23)cc1 was tested on DNA (cytosine-5)-methyltransferase 1 (Homo sapiens, UniProt P26358), and its inhibition came to 0

Here c1ccc(CCCNc2ncnc3cc(OCC4CCN(CCNc5cccc6ccccc56)CC4)ccc23)cc1 was tested on DNA (cytosine-5)-methyltransferase 1 (Homo sapiens, UniProt P26358), and its inhibition came to 0

Here c1ccc2c(NCCNc3ncnc4cc(OCC5CCN(CCNc6ccnc7ccccc67)CC5)ccc34)cccc2c1 was tested on DNA (cytosine-5)-methyltransferase 1 (Homo sapiens, UniProt P26358), and its inhibition came to 94

* * *

- experimentalTarget: DNA (cytosine-5)-methyltransferase 1 (Homo sapiens, UniProt P26358)
- assayComment: Inhibition of full length His-tagged human DNMT1 using SAM/[methyl-3H]SAM assessed as reduction of methylation in biotinylated hemimethylated DNA duplex after 1 hr by scintillation counting method
Quick reference: EC50 of the listed items.
Quick note: number first, unit second.

Worked examples follow.
Here COc1cc2nccc(NCCN3CCC(COc4ccc5c(NCCCc6ccccc6)ncnc5c4)CC3)c2cc1OC was tested on DNA (cytosine-5)-methyltransferase 1 (Homo sapiens, UniProt P26358), and its EC50 came to 30 µM

Here COc1ccc(CCNc2ncnc3cc(OCC4CCN(CCNc5ccnc6ccccc56)CC4)ccc23)cc1 was tested on DNA (cytosine-5)-methyltransferase 1 (Homo sapiens, UniProt P26358), and its EC50 came to 27 µM

Here c1ccc(CCCNc2ncnc3cc(OCC4CCN(CCNc5ccnc6ccccc56)CC4)ccc23)cc1 was tested on DNA (cytosine-5)-methyltransferase 1 (Homo sapiens, UniProt P26358), and its EC50 came to 46 µM

Query molecule follows.
Here c1ccc2c(NCCNc3ncnc4cc(OCC5CCN(CCNc6ccnc7ccccc67)CC5)ccc34)cccc2c1 was tested on DNA (cytosine-5)-methyltransferase 1 (Homo sapiens, UniProt P26358), and its EC50 came to 20 µM
